Every entry's value here was drawn from patent US20230081426A1.

Molecular target: G12V-mutant human KRAS (amino acid residues 1-188) (Homo sapiens, UniProt P01116, G12V)
Construct: G12V-mutant human KRAS (amino acid residues 1-188) with FLAG tag was purified from E. coli; made in house; host or cells: E. coli
Assay: KRAS Binding Competition Assay (AlphaScreen; biotinylated KRpep-2d analogue), G12V
Conditions: geometric mean, read-out: KRAS GMean IC50 (uM) MUTATION: G12V
Listing of entries alongside the reported IC50.

Compound	IC50
CN1CCC[C@H]1COc1nc(N2[C@@H]3CC[C@H]2CNC3)c2ccc(-c3ccc4ccccc4c3)cc2n1	10 to 100 µM

IC50 reading for CN1CCC[C@H]1COc1nc(N2[C@@H]3CC[C@H]2CN(CC(=O)C2CCNCC2)C3)c2ccc(-c3cc(O)cc4ccccc34)cc2n1 : 10 to 100 µM

IC50 reading for CN1CCC[C@H]1COc1nc(N2[C@@H]3CC[C@H]2CN(C(=O)CCCN2CCOCC2)C3)c2ccc(-c3cc(O)cc4ccccc34)cc2n1 : 10 to 100 µM

IC50 reading for CN1CCC[C@H]1COc1nc(N2C[C@H]3CC[C@@H](C2)N3C(=O)Cc2cnn(C)c2)c2ccc(-c3cc(O)cc4ccccc34)c(F)c2n1 : 0.0001 to 10 µM

IC50 reading for Fc1cc2c(N3C[C@H]4CC[C@@H](C3)N4)nc(OCC34CCCN3CCC4)nc2c(F)c1-c1c[nH]c2ccc(Cl)cc12 : 10 to 100 µM

IC50 reading for CN1CCC[C@H]1COc1nc(N2C[C@H]3CC[C@@H](C2)N3)c2cc(F)c(-c3cc(O)cc4ccccc34)c(F)c2n1 : 0.0001 to 10 µM

IC50 reading for CN1CCC[C@H]1COc1nc(N2C[C@H]3CC[C@@H](C2)N3)c2ccc(N3CC(O)Cc4ccccc43)c(F)c2n1 (stereo partly shown) : 10 to 100 µM

----------
Molecular target: G12C-mutant human KRAS (amino acid residues 1-188) (Homo sapiens, UniProt P01116, G12C)
Construct: G12D or G12C-mutant human KRAS (amino acid residues 1-188) with FLAG tag; made in house; host or cells: E. coli
Test: KRAS Binding Disruption Assay (AlphaScreen; biotinylated KRpep-2d analogue or RAF1-RBD), G12C
Conditions: geometric mean, read-out: KRAS GMean IC50 (uM) MUTATION: G12C
Metric: IC50

Take a look at these entries with their results.
Molecule	System Tested	IC50
Oc1cc(-c2ccc3c(N4C[C@H]5CC[C@@H](C4)N5)nc(OCCN4CCOCC4)nc3c2F)c2ccccc2c1 [P-0695]	G12C-mutant human KRAS (amino acid residues 1-188) (Homo sapiens, UniProt P01116, G12C)	10 to 100 µM
O=C1CCC(COc2nc(N3C[C@H]4CC[C@@H](C3)N4)c3ccc(-c4cc(O)cc5ccccc45)c(F)c3n2)N1 (stereo partly shown) [P-0802]	G12C-mutant human KRAS (amino acid residues 1-188) (Homo sapiens, UniProt P01116, G12C)	10 to 100 µM
CN1CCN(c2nc(N3C[C@H]4CC[C@@H](C3)N4)c3ccc(-c4cc(O)cc5ccccc45)c(F)c3n2)CC1 [P-0684]	G12C-mutant human KRAS (amino acid residues 1-188) (Homo sapiens, UniProt P01116, G12C)	100 to 1000 µM
CC(CN)Oc1nc(N2C[C@H]3CC[C@@H](C2)N3)c2ccc(-c3cc(O)cc4ccccc34)cc2n1 (stereo partly shown) [P-0062]	G12C-mutant human KRAS (amino acid residues 1-188) (Homo sapiens, UniProt P01116, G12C)	10 to 100 µM
O=C1NC(=O)/C(=C/C(=O)N2[C@@H]3CC[C@H]2CN(c2nc(OCC45CCCN4CCC5)nc4c(F)c(-c5cc(O)cc6ccccc56)ccc24)C3)S1 [P-0443]	G12C-mutant human KRAS (amino acid residues 1-188) (Homo sapiens, UniProt P01116, G12C)	0.0001 to 10 µM
Fc1cc2[nH]cc(-c3c(F)cc4c(N5C[C@H]6CC[C@@H](C5)N6)nc(OCC56CCCN5CCC6)nc4c3F)c2cc1F [P-0789]	G12C-mutant human KRAS (amino acid residues 1-188) (Homo sapiens, UniProt P01116, G12C)	10 to 100 µM

IC50 reading for N#CCC(=O)N1[C@@H]2CC[C@H]1CN(c1nc(OC[C@@]34CCCN3C[C@H](F)C4)nc3c(F)c(-c4cc(O)cc5cccc(Cl)c45)ccc13)C2 [P-0504] : 0.0001 to 10 µM

----------
Listing of entries alongside the reported IC50.
Biological target: G12C-mutant human KRAS (amino acid residues 1-188) (Homo sapiens, UniProt P01116, G12C)
Construct: G12D or G12C-mutant human KRAS (amino acid residues 1-188) with FLAG tag; made in house; host or cells: E. coli
Assay: KRAS Binding Disruption Assay (AlphaScreen; biotinylated KRpep-2d analogue or RAF1-RBD), G12C
Settings: geometric mean, read-out: KRAS GMean IC50 (uM) MUTATION: G12C

Take a look at these entries with their results.
Compound	Value Reported
CN1CCC[C@H]1COc1nc(N2CC3CC2CN3)c2cc(Cl)c(-c3cc(O)cc4ccccc34)c(F)c2n1 (stereo partly shown)	10 to 100 µM
CC(F)(F)COc1nc(N2C[C@H]3CC[C@@H](C2)N3)c2ccc(-c3cc(O)cc4ccccc34)c(F)c2n1	10 to 100 µM
Fc1cc2c(N3C[C@H]4CC[C@@H](C3)N4)nc(OCC34CCCN3CCC4)nc2c(F)c1-c1c[nH]c2cccc(C3CC3)c12	0.0001 to 10 µM

Now consider a different compound.
IC50 reading for CC(C)(O)CCOc1nc(N2C[C@H]3CC[C@@H](C2)N3)c2ccc(-c3cc(O)cc4ccccc34)c(F)c2n1 : 10 to 100 µM

----------
Target: G12D-mutant human KRAS (amino acid residues 1-188) (Homo sapiens, UniProt P01116, G12D)
Construct: G12D or G12C-mutant human KRAS (amino acid residues 1-188) with FLAG tag; made in house; host or cells: E. coli
Test: KRAS Binding Disruption Assay (AlphaScreen; biotinylated KRpep-2d analogue or RAF1-RBD), G12D
Conditions: KRAS G12D; geometric mean; read-out: KRAS GMean IC50 (uM) MUTATION: G12D
Metric: IC50

IC50 on G12D-mutant human KRAS (amino acid residues 1-188) (Homo sapiens, UniProt P01116, G12D) for CN(C)c1ccc(Nc2nc(N3C[C@H]4CC[C@@H](C3)N4)c3cc(Cl)c(-c4c(O)cccc4F)c(F)c3n2)cc1 is 0.0001 to 10 µM

IC50 on G12D-mutant human KRAS (amino acid residues 1-188) (Homo sapiens, UniProt P01116, G12D) for Oc1cc(-c2ccc3c(N4C[C@H]5CC[C@@H](C4)N5)nc(N4CC(N5CCC(O)C5)C4)nc3c2F)c2ccccc2c1 (stereo partly drawn) is 0.0001 to 10 µM

IC50 on G12D-mutant human KRAS (amino acid residues 1-188) (Homo sapiens, UniProt P01116, G12D) for CN1CCC[C@H]1COc1nc(N2[C@@H]3CC[C@H]2CN(C(=O)CCCn2ccnc2)C3)c2ccc(-c3cc(O)cc4ccccc34)cc2n1 is 10 to 100 µM

IC50 on G12D-mutant human KRAS (amino acid residues 1-188) (Homo sapiens, UniProt P01116, G12D) for CN1CCC[C@@H](COc2nc(N3C[C@H]4CC[C@@H](C3)N4)c3ccc(-c4cc(O)cc5ccccc45)cc3n2)C1 is 0.0001 to 10 µM

IC50 on G12D-mutant human KRAS (amino acid residues 1-188) (Homo sapiens, UniProt P01116, G12D) for Oc1cc(-c2ccc3c(N4C[C@H]5CC[C@@H](C4)N5)nc(OCC4CCC4O)nc3c2F)c2ccccc2c1 (stereo partly drawn) is 0.0001 to 10 µM

IC50 on G12D-mutant human KRAS (amino acid residues 1-188) (Homo sapiens, UniProt P01116, G12D) for Oc1cc(-c2ccc3c(N4C[C@H]5CC[C@@H](C4)N5)nc(OCCn4cncn4)nc3c2F)c2ccccc2c1 is 0.0001 to 10 µM

IC50 on G12D-mutant human KRAS (amino acid residues 1-188) (Homo sapiens, UniProt P01116, G12D) for CN1CCC[C@H]1COc1nc(N2C[C@H]3CC[C@@H](C2)N3)c2cc(F)c(-c3n[nH]c4ccccc34)c(F)c2n1 is 10 to 100 µM

IC50 on G12D-mutant human KRAS (amino acid residues 1-188) (Homo sapiens, UniProt P01116, G12D) for CN(C)CCCS(=O)(=O)N1[C@@H]2CC[C@H]1CN(c1nc(OCC34CCCN3CCC4)nc3c(F)c(-c4cc(O)cc5ccccc45)ccc13)C2 is 0.0001 to 10 µM

IC50 on G12D-mutant human KRAS (amino acid residues 1-188) (Homo sapiens, UniProt P01116, G12D) for CN1CCC[C@H]1COc1nc(N2C[C@H]3CC[C@@H](C2)N3C(=O)CS(N)(=O)=O)c2ccc(-c3cc(O)cc4ccccc34)cc2n1 is 0.0001 to 10 µM

IC50 on G12D-mutant human KRAS (amino acid residues 1-188) (Homo sapiens, UniProt P01116, G12D) for OCC1(CNc2nc(N3C[C@H]4CC[C@@H](C3)N4)c3ccc(-c4cc(O)cc5ccccc45)c(F)c3n2)COC1 is 0.0001 to 10 µM

IC50 on G12D-mutant human KRAS (amino acid residues 1-188) (Homo sapiens, UniProt P01116, G12D) for Fc1cc2c(N3C[C@H]4CC[C@@H](C3)N4)nc(OCC34CCCN3CCC4)nc2c(F)c1-c1c[nH]c2ccccc12 is 0.0001 to 10 µM

IC50 on G12D-mutant human KRAS (amino acid residues 1-188) (Homo sapiens, UniProt P01116, G12D) for CN1CCC[C@H]1COc1nc(N2[C@@H]3CC[C@H]2CNC3)c2ccc(-c3cc(N)cc4ccccc34)cc2n1 is 0.0001 to 10 µM

IC50 on G12D-mutant human KRAS (amino acid residues 1-188) (Homo sapiens, UniProt P01116, G12D) for O=C(CN1[C@@H]2CC[C@H]1CN(c1nc(OCC34CCCN3CCC4)nc3cc(-c4cc(O)cc5ccccc45)ccc13)C2)C1CCNCC1 is 0.0001 to 10 µM

IC50 on G12D-mutant human KRAS (amino acid residues 1-188) (Homo sapiens, UniProt P01116, G12D) for CN1CCC[C@H]1COc1nc(N2C[C@H]3CC[C@@H](C2)N3)c2cc(Cl)c(-c3c[nH]c4ccccc34)c(F)c2n1 is 0.0001 to 10 µM

IC50 on G12D-mutant human KRAS (amino acid residues 1-188) (Homo sapiens, UniProt P01116, G12D) for CC1(COc2nc(N3C[C@H]4CC[C@@H](C3)N4)c3ccc(-c4cc(O)cc5ccccc45)c(F)c3n2)COC1 is 100 to 1000 µM
